Test: Intravenous integrated area under the concentration vs time curve, for compound in hamster plasma
Type: ADME, organism-based
Conditions: cricetinae
Where a SMILES comes first, the peptide text is derived from it. The star is where a group is joined. CF3 = FC(F)(F)*; Moc = COC(=O)*
ENDPOINT NAME: AUC (ng·h/mL)
Numbers only, in ng·h/mL.

I would be grateful if you could provide AUC for each of the following entries.
1. COC(=O)N[C@H](C(=O)N1CCC[C@H]1C(=O)N[C@H](C(=O)C(F)(F)F)C(C)C)C(C)C (Moc-Val-Pro-Val-CF3)
2. COc1ccc(C(=O)N[C@H](C(=O)N2CCC[C@H]2C(=O)N[C@H](C(=O)C(F)(F)F)C(C)C)C(C)C)cc1 (stereo in doubt; 1k)

RESULT:
1: 2890; 2: 1360

###

Target: Neutrophil elastase (Homo sapiens)
Experiment: Binding affinity for human leukocyte elastase
Would you mind telling me the reported pKi of each entry?
Answers are plain numbers, as −log10 of the molar value.

Below, 3 compounds whose answers are already recorded.
COMPOUND	TARGET ENTITY	pKi
COc1ccc(C(=O)N[C@H](C(=O)N2CCC[C@H]2C(=O)N[C@H](C(=O)C(F)(F)CNC(=O)c2ccccc2)C(C)C)C(C)C)cc1	Neutrophil elastase (Homo sapiens)	8.19
CC(C)[C@H](NC(=O)Oc1ccccc1)C(=O)N1CCC[C@H]1C(=O)N[C@H](C(=O)C(F)(F)CNC(=O)c1cccnc1)C(C)C	Neutrophil elastase (Homo sapiens)	9.46
CC(C)OC(=O)N[C@H](C(=O)N1CCC[C@H]1C(=O)NC(C(=O)C(F)(F)F)C(C)C)C(C)C (some centres undefined)	Neutrophil elastase (Homo sapiens)	7.48

Next up:
QUERY: Recorded pKi for CC(C)[C@H](NC(=O)c1ccc(C(=O)NS(=O)(=O)c2ccccc2)cc1)C(=O)N1CCC[C@H]1C(=O)N[C@H](C(=O)C(F)(F)C(=O)NCCc1ccccc1)C(C)C , please?
RESULT: 10.22

###

Target: Neutrophil elastase (Homo sapiens, UniProt P08246)
Sequence (P08246 whole entry): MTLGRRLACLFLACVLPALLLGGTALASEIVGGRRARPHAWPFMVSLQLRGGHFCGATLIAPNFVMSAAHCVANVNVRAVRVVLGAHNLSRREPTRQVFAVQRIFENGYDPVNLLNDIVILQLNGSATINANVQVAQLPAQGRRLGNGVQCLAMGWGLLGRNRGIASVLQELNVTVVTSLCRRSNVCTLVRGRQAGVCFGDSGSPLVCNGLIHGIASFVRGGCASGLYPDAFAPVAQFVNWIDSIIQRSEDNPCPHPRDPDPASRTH
Assay: Binding affinity for human leukocyte elastase
ENDPOINT NAME: log10 of Ki (log10 of the value in nM)
Log10 applied to Ki; unit prior to transform: nM.

COMPOUND	ENDPOINT NAME	ENDPOINT RESULT
COC(=O)c1ccc2nc(C(=O)[C@@H](NC(=O)[C@@H]3CCCN3C(=O)[C@@H](NC(=O)Oc3ccccc3)C(C)C)C(C)C)oc2c1	log10 of Ki	-0.19

I would be grateful if you could provide log10 of Ki for each of the following entries.
1. COc1ccc(C(=O)N[C@H](C(=O)N2CCC[C@H]2C(=O)N[C@H](C(=O)c2nc3cc(NC(C)=O)ccc3o2)C(C)C)C(C)C)cc1
2. CC(C)OC(=O)N[C@H](C(=O)N1CCC[C@H]1C(=O)N[C@H](C(=O)C(F)(F)F)C(C)C)C(C)C
3. CNC(=O)C(F)(F)C(=O)[C@@H](NC(=O)[C@@H]1CCCN1C(=O)[C@@H](NC(=O)c1ccc(OC)cc1)C(C)C)C(C)C

RESULT:
1. 0.90
2. 0.76
3. 0.58

I would be grateful if you could provide log10 of Ki for each of the following entries.
1. CC(C)[C@H](NC(=O)COc1ccccc1)C(=O)N1CCC[C@H]1C(=O)N[C@H](C(=O)C(F)(F)F)C(C)C
2. CC(C)[C@H](NC(=O)Oc1ccccc1)C(=O)N1CCC[C@H]1C(=O)N[C@H](C(=O)C(F)(F)F)C(C)C
3. CC(C)[C@H](NC(=O)Oc1ccccc1)C(=O)N1CCC[C@H]1C(=O)N[C@H](C(=O)C(F)(F)C(=O)NCc1ccccn1)C(C)C

RESULT:
1. 1.23
2. 0.18
3. 0.23
